Catalogue of LD50 readings, one per entry.
- assay procedure: Acute toxicity (LD50, method of MILLER and TAINTER) in the conventional mouse
- condition notes: in vivo; mouse about 20 g, oral; read-out: LD50, orally

Take a look at these entries with their results.
Consider the molecule shown here: O=C(NCCOC(=O)c1ccccc1Nc1ccnc2cc(C(F)(F)F)ccc12)c1cccnc1 What is its recorded LD50?
3200 mg/kg

Also O=C(NCCOC(=O)c1ccccc1Nc1ccnc2cc(Cl)ccc12)c1cccnc1 , if possible.
2800 mg/kg

Now look at this entry.
Consider the molecule shown here: O=C(OCC(O)CO)c1ccccc1Nc1ccnc2cc(Cl)ccc12 (stereo not drawn) [Glaphenine, reference compound] What is its recorded LD50?
1500 mg/kg

---

Catalogue of LD50 readings, one per entry.
- assay procedure: Acute toxicity (LD50, method of MILLER and TAINTER) in the conventional mouse
- condition notes: in vivo, ip; mouse about 20 g, intraperitoneal; read-out: LD50, intraperitoneally

Consider the molecule shown here: O=C(NCCOC(=O)c1ccccc1Nc1ccnc2cc(C(F)(F)F)ccc12)c1cccnc1 What is its recorded LD50?
> 1000 mg/kg

Also O=C(OCC(O)CO)c1ccccc1Nc1ccnc2cc(Cl)ccc12 (stereo not drawn) [Glaphenine, reference compound] , if possible.
~500 mg/kg

Now look at this entry.
Consider the molecule shown here: O=C(NCCOC(=O)c1ccccc1Nc1ccnc2cc(Cl)ccc12)c1cccnc1 What is its recorded LD50?
> 500 mg/kg
